This section presents binders with their documented Primary assay EC50 (cAMP) Mean values.
# TARGET_OR_SYSTEM: GLP-1 receptor (GLP-1R), primary cAMP assay (human, UniProt P43220 24-463)
# PROTOCOL_DETAILS: cell-based or functional assay
Starred links: 1 amine or outer side, 2 acyl side, 3 side chain; linkers in the order of their positions; H or OH if unused. Non-standard residues stand in square brackets, D forms with d. Groups on a side chain read outwards from the residue. Primed or numbered codes have the meaning given here. No end group written: not given here. *: point of attachment. γGlu = O=C(O)[C@H](CCC(=O)[*:2])N[*:1]; Palmitoyl = CCCCCCCCCCCCCCCC(=O)*; αMeF = C[C@](N)(Cc1ccccc1)C(=O)O; αMeK = C[C@](N)(CCCCN)C(=O)O; Lauroyl = CCCCCCCCCCCC(=O)*; αMeS = C[C@](N)(CO)C(=O)O; PEG2′ = not defined here; Aib = CC(C)(N)C(=O)O

| BINDER | Primary assay EC50 (cAMP) Mean [nM] |
| --- | --- |
| H[Aib]EGTFTSDVSK([PEG2′-PEG2′-γGlu-Palmitoyl])FLEGEAAEEFIK([PEG2′-PEG2′-γGlu-Palmitoyl])WVVEGG-NH2 [SEQ ID NO: 243] | 3.21 |
| H[Aib]EGS[αMeF]TSDV[αMeS]SYK([PEG2′-PEG2′-γGlu-Palmitoyl])EGEAA[αMeK]EFIK([PEG2′-PEG2′-γGlu-Palmitoyl])WVVEGG-NH2 [SEQ ID NO: 271] | 0.821 |
| H[Aib]EGTFTSDVSK([PEG2′-PEG2′-γGlu-Palmitoyl])YLEGEAAEEFIK([PEG2′-PEG2′-γGlu-Palmitoyl])FVVEGG-NH2 [SEQ ID NO: 244] | 12.3 |
| H[Aib]EGS[αMeF]TSDVSK([PEG2′-PEG2′-γGlu-Lauroyl])FLEGEAAEEFIK([PEG2′-PEG2′-γGlu-Lauroyl])FVVEGG-NH2 [SEQ ID NO: 241] | 0.0096 |
